Reference source for all entries: patent US10774051B2

biological target: human P2X7 receptor (Homo sapiens, UniProt Q99572, R270H/Y155H); assay: Evaluation of human P2X7 receptor inhibitory activity (Yo-Pro uptake, BzATP stimulation, FLIPR TETRA); assay type: cell-based; settings: 1321N1 cells stably expressing human P2X7 receptor; BzATP stimulation, Yo-Pro uptake; read-out: IC50 (antagonistic activity for the human P2X7 receptor), class symbol
property-measured: IC50

COc1cn(Cc2ccc(F)c(Cl)c2)c(Nc2cc(C(C)(C)C)ccc2C)nc1=O = 10 to 100 nM

Ask: Write down IC50 measured for item `Cc1cc(C)c(Nc2nc(=O)c(F)cn2Cc2ccc(F)cc2)cc1C`
Result: < 10 nM

Ask: Note IC50 for the molecule shown: `CCc1ccccc1Nc1nc(=O)c(OC)cn1Cc1ccc(F)cc1`
Result: 10 to 100 nM

Ask: Given the molecule `CCc1cc(F)ccc1Nc1nc(=O)c(OC)cn1Cc1ccc(F)c(Cl)c1` , write its reported IC50.
Result: 10 to 100 nM

Ask: Return IC50 for the following molecule: `COc1cn(Cc2cc(F)cc(F)c2)c(Nc2cc(C)ccc2C)nc1=O`
Result: < 10 nM

Ask: Provide only the value of recorded IC50 for `Cc1c(Cl)cccc1Nc1nc(=O)c(C(=O)NCC#N)cn1Cc1ccccc1`
Result: 100 to 500 nM

Ask: Name the recorded IC50 of the molecule listed here: `COc1cn(Cc2ccccc2)c(Nc2cc(Br)ccc2Cl)nc1=O`
Result: 100 to 500 nM

Ask: Give the value of IC50 reported for the following: `CCc1cc(OC)ccc1Nc1nc(=O)c(OC)cn1Cc1cc(F)c(F)c(F)c1`
Result: < 10 nM

* * *

pIC50 listing for selected compounds.
biological target: human P2X7 receptor (Homo sapiens, UniProt Q99572, R270H/Y155H); experiment: Evaluation of human P2X7 receptor inhibitory activity (Yo-Pro uptake, BzATP stimulation, FLIPR TETRA); type: cell-based; settings: antagonistic activity for the human P2X7 receptor; read-out: IC50
pIC50: −log10 of the molar value.

CCOc1cc(Nc2nc(=O)c(OC)cn2Cc2cc(F)cc(F)c2)c(C)cc1C = > 8.00
COc1cn(Cc2cccc(F)c2)c(Nc2cc(C)ccc2C)nc1=O = 7.00 to 8.00
CCOc1ccc(Nc2nc(=O)c(F)cn2Cc2ccc(F)c(F)c2)c(C)c1 = 7.00 to 8.00

Ask: # return recorded pIC50 for entry `CCOc1ccc(Nc2nc(=O)c(OC)cn2Cc2cc(F)cc(Cl)c2)c(C)c1`
Result: 7.00 to 8.00

* * *

target: human P2X7 receptor (Homo sapiens, UniProt Q99572, R270H/Y155H); assay: Evaluation of human P2X7 receptor inhibitory activity (Yo-Pro uptake, BzATP stimulation, FLIPR TETRA); format: cell-based; conditions: antagonistic activity for the human P2X7 receptor; read-out: IC50
pIC50: −log10 of the molar value.
property-measured: pIC50

Cc1ccc(CO)cc1Nc1nc(=O)c(F)cn1Cc1ccc(F)c(Cl)c1 = > 8.00
Cc1c(Cl)cccc1Nc1nc(=O)c(F)cn1Cc1cc(F)c(F)c(F)c1 = > 8.00
COc1ccc(Nc2nc(=O)c(C)nn2Cc2cc(F)c(F)c(F)c2)c(C)n1 = 7.00 to 8.00
CCOc1cc(Nc2nc(=O)c(F)cn2Cc2ccc(F)c(Cl)c2)c(C)cc1F = > 8.00
Cc1ccc(Nc2nc(=O)c(F)cn2Cc2cc(F)c(F)c(F)c2)c(C)c1 = > 8.00
COCc1cc(=O)nc(Nc2cc(OC)c(OC)cc2C)n1Cc1cc(F)cc(F)c1 = 7.00 to 8.00
CCOc1cc(Nc2nc(=O)c(OC)cn2Cc2ccccc2)c(C)cc1F = 7.00 to 8.00
Cc1cc(C)c(Nc2nc(=O)c(F)cn2Cc2cc(F)cc(F)c2)cc1CO = > 8.00
Cc1nc2cc(C)c(Nc3nc(=O)c(F)cn3Cc3cc(F)cc(F)c3)cc2s1 = > 8.00
O=c1nc(Nc2cccc3cnccc23)n(Cc2cc(F)c(F)c(F)c2)cc1F = 7.00 to 8.00

Ask: // fetch pIC50 given entry `Cc1cc(F)c(C)c(Nc2nc(=O)c(F)cn2Cc2cc(F)c(F)c(F)c2)c1`
Result: > 8.00

Ask: Tell us which pIC50 value is on record for `CCc1cc(F)ccc1Nc1nc(=O)c(F)cn1Cc1cc(F)c(F)c(F)c1`
Result: > 8.00

* * *

target: human P2X7 receptor (Homo sapiens, UniProt Q99572, R270H/Y155H); test: Evaluation of human P2X7 receptor inhibitory activity (Yo-Pro uptake, BzATP stimulation, FLIPR TETRA); format: cell-based; conditions: antagonistic activity for the human P2X7 receptor; read-out: IC50
property-measured: IC50

Check out these entries, answers already filled in.
COCCOc1ccc(C)c(Nc2nc(=O)c(F)cn2Cc2cc(F)c(F)c(F)c2)c1 = < 10 nM
COc1cn(Cc2ccc(F)c(Cl)c2)c(Nc2cc3c(cc2C)OC(F)(F)O3)nc1=O = 100 to 500 nM
CCc1cc2c(cc1Nc1nc(=O)c(OC)cn1Cc1ccccc1)OC(F)(F)O2 = 100 to 500 nM
COc1cn(Cc2cc(F)c(F)c(F)c2)c(Nc2cc3nc(C)sc3cc2C)nc1=O = 10 to 100 nM
COc1cn(Cc2cc(F)cc(F)c2)c(Nc2cccc3occc23)nc1=O = 10 to 100 nM

Ask: Give recorded IC50. `Cc1cccc(Nc2nc(=O)c(F)cn2Cc2cc(F)c(F)c(F)c2)c1C`
Result: < 10 nM

Ask: // fetch IC50 given entry `CCOc1cc(C)c(Nc2nc(=O)c(F)cn2Cc2cc(F)c(F)c(F)c2)cc1F`
Result: 10 to 100 nM

Ask: # return recorded IC50 for entry `COc1cn(Cc2cc(F)cc(Cl)c2)c(Nc2cc(-c3ccc(C)o3)ccc2C)nc1=O`
Result: 10 to 100 nM

* * *

target: human P2X7 receptor (Homo sapiens, UniProt Q99572, R270H/Y155H); experiment: Evaluation of human P2X7 receptor inhibitory activity (Yo-Pro uptake, BzATP stimulation, FLIPR TETRA); type: cell-based; conditions: 1321N1 cells stably expressing human P2X7 receptor; BzATP stimulation, Yo-Pro uptake; read-out: IC50 (antagonistic activity for the human P2X7 receptor), class symbol
property-measured: IC50

These recorded examples may help you get a feel for the data.
COc1cn(Cc2ccccc2)c(Nc2cc(SC(F)(F)F)ccc2C)nc1=O [Compound I-0512] = 100 to 500 nM
Cc1c(Cl)cccc1Nc1nc(=O)c(C(=O)N(C)C)cn1Cc1ccccc1 [Compound I-0100] = 100 to 500 nM
COc1cn(Cc2ccccc2)c(Nc2cc(CO)ccc2C)nc1=O [Compound I-0180] = 10 to 100 nM

Ask: State, in one line, measured IC50 of COc1cn(Cc2ccccc2)c(Nc2cc(F)c(F)cc2C)nc1=O [Compound I-0359]
Result: 500 to 1000 nM

Ask: Report measured IC50; entry is Cc1c(Cl)cccc1Nc1nc(=O)c(CC(=O)N2CCOCC2)cn1Cc1ccccc1 [Compound I-0339]
Result: 100 to 500 nM

Ask: Please indicate IC50 recorded for COc1cn(Cc2ccc(F)c(Cl)c2)c(Nc2cc(C)ccc2C)nc1=O [Compound I-0334]
Result: < 10 nM

Ask: Please give the documented IC50 of COc1cc(C)c(Nc2nc(=O)c(F)cn2Cc2ccc(F)cc2)cc1OC [Compound I-0209]
Result: < 10 nM

Ask: Quote IC50 reported for CCc1ccc(F)cc1Nc1nc(=O)c(OC)cn1Cc1ccc(F)cc1 [Compound I-0565] please.
Result: 100 to 500 nM

Ask: Return value of IC50 for input COc1cn(Cc2cc(F)cc(Cl)c2)c(Nc2cc(C)c(OC(F)F)cc2C)nc1=O [Compound I-0529] , no commentary.
Result: 10 to 100 nM

* * *

target: human P2X7 receptor (Homo sapiens, UniProt Q99572, R270H/Y155H); experiment: Evaluation of human P2X7 receptor inhibitory activity (Yo-Pro uptake, BzATP stimulation, FLIPR TETRA); format: cell-based; conditions: antagonistic activity for the human P2X7 receptor; read-out: IC50
pIC50: −log10 of the molar value.
property-measured: pIC50

Worked cases, pIC50 given:
CCOc1cc(Nc2nc(=O)c(F)cn2Cc2cc(F)cc(F)c2)c(C)cc1F = 7.00 to 8.00
COc1cc(C)c(Nc2nc(=O)c(F)cn2Cc2cc(F)cc(F)c2)cc1Cl = > 8.00
Cc1cc(Nc2nc(=O)c(F)cn2Cc2cc(F)c(F)c(F)c2)c(C)cc1Cl = > 8.00
COc1cn(Cc2cc(F)cc(Cl)c2)c(Nc2cccc(SC)c2C)nc1=O = 7.00 to 8.00
COc1cc(F)c(Nc2nc(=O)c(C)nn2Cc2cc(F)c(F)c(F)c2)cc1OC = 7.00 to 8.00
COc1cn(Cc2ccccc2)c(Nc2cc(OC(F)F)ccc2C)nc1=O = 7.00 to 8.00
COc1cn(Cc2cc(F)cc(F)c2)c(Nc2cc(-c3cccn(C)c3=O)ccc2C)nc1=O = > 8.00
Cc1nc2cc(Cl)c(Nc3nc(=O)c(F)cn3Cc3ccc(F)c(F)c3)cc2o1 = > 8.00
COc1cccc(Nc2nc(=O)c(OC)cn2Cc2cc(F)cc(F)c2)c1Cl = > 8.00
CCc1cc2c(cc1Nc1nc(=O)c(OC)cn1Cc1ccc(F)c(Cl)c1)OCO2 = > 8.00

Ask: Look up and report measured pIC50 for this entry: `Cc1cc2c(cc1Nc1nc(=O)cnn1Cc1cc(F)c(F)c(F)c1)COC2`
Result: > 8.00

Ask: Please list pIC50 recorded for the compound `Cc1ccc(Nc2nc(=O)c(F)cn2Cc2cc(F)c(F)c(F)c2)c(Cl)c1`
Result: > 8.00

Ask: Give pIC50 for the following compound: `COc1cn(Cc2ccc(F)c(Cl)c2)c(Nc2cc(C)c(OC(F)(F)F)cc2C)nc1=O`
Result: 7.00 to 8.00
